biological target: fungal (fACC2) ACC2; settings: read-out: fACC2 IC50; fungal ACC2, ADP-Glo
measured-quantity: IC50

COCCCO[C@@H](Cn1c(=O)n(C(C)C(=O)NC(C)C)c(=O)c2c(C)c(-n3cccn3)sc21)c1cc(F)ccc1OC (stereo partly drawn) : 0.6 to 3 nM

Data request, read-out IC50, for "COCCO[C@@H](Cn1c(=O)n([C@@H](C)C(=O)N2CCCC2)c(=O)c2c(C)c(-n3cccn3)sc21)c1cc(F)ccc1OC"
0.6 to 3 nM

Same read-out for COCCO[C@@H](Cn1c(=O)n(C(C)C(=O)NC(C)C)c(=O)c2c(C)c(-n3cccn3)sc21)c1cc(F)ccc1OC (stereo partly drawn) ?
0.6 to 3 nM

----------
system: Phytophthora capsici (Pc); assay: Growth inhibition assay of fungal pathogens; assay type: cell-based; conditions: Phytophthora capsici; Table 4b, 48 hours; read-out: Concentration at 90% Inhibition Pc
measured-quantity: IC90

Look over these answered cases.
COc1ccc(F)cc1[C@H](Cn1c(=O)n(C(C)(C)C(=O)N2CCCC2)c(=O)c2c(C)c(-n3cccn3)sc21)OCCC#N : > 50 µg/mL
COc1ccc(F)cc1[C@H](Cn1c(=O)n(C(C)(C)C(=O)N2CC(O)C2)c(=O)c2c(C)c(-n3cccn3)sc21)OC1CCOCC1 : > 50 µg/mL

With those in mind, consider the next compound.
Which IC90 reading was recorded for the compound "COc1ccccc1[C@H](Cn1c(=O)n(C(C)(C)C(N)=O)c(=O)c2c(C)c(-n3cccn3)sc21)OCC(C)C" ?
> 50 µg/mL

----------
Test system human (hACC2) ACC2 (Homo sapiens), IC50 listed for each of the compounds.

See these solved cases before continuing.
COc1ccc(F)cc1[C@H](Cn1c(=O)n(C(C)(C)C(=O)NC(C)C)c(=O)c2c(C)c(-n3cccn3)sc21)OCC(C)(C)O : 3 to 10 nM
COc1ccc(F)cc1[C@H](Cn1c(=O)n(C(C)C(=O)NC(C)C)c(=O)c2c(C)c(-n3cccn3)sc21)OC(C)C (stereo partly shown) : 10 to 40 nM
COCCO[C@@H](Cn1c(=O)n([C@@H](C)C(=O)NC(C)C)c(=O)c2c(C)c(-n3cccn3)sc21)c1cc(F)ccc1OC : 3 to 10 nM
COCCO[C@@H](Cn1c(=O)n(C(C)C(=O)N2CCCC2)c(=O)c2c(C)c(-n3cccn3)sc21)c1cc(F)ccc1OC (mixture of isomers) : 10 to 40 nM
COc1ccc(F)cc1[C@H](Cn1c(=O)n(C(C)(C)C(=O)N2CCCC2)c(=O)c2c(C)c(-n3cccn3)sc21)OC[C@@H](C)O : 3 to 10 nM

Value lookup for IC50; key = COc1ccc(F)cc1[C@H](Cn1c(=O)n(C(C)C(=O)NC(C)C)c(=O)c2c(C)c(-n3cccn3)sc21)OCC(C)(C)O (stereo partly shown)
10 to 40 nM

Proceed to COc1ccc(F)cc1[C@H](Cn1c(=O)n(C(C)C(=O)NC(C)C)c(=O)c2c(C)c(-n3cccn3)sc21)OCCO (stereo partly shown)
3 to 10 nM

----------
system: C. parapsilosis ATCC 22019; experiment: Anti-Fungal (Candida) Activity Assay, broth microtiter MIC; assay type: cell-based; conditions: Lodderomyces parapsilosis, ATCC22019; 3 replicates, MIC recorded at 48 h; read-out: MIC C. parapsilosis ATCC 22019
measured-quantity: MIC

Example entries begin here.
COc1ccc(F)cc1[C@H](Cn1c(=O)n(C(C)(C)C(=O)N2CCCC2)c(=O)c2c(C)c(-n3cccn3)sc21)OCCO : 2.1 to 4 µg/mL
COc1ccc(F)cc1[C@H](Cn1c(=O)n(C(C)C(N)=O)c(=O)c2c(C)c(-n3cccn3)sc21)OCC(C)(C)O (stereo partly drawn) : > 4.1 µg/mL

What MIC value was documented for this molecule, COc1ccc(F)cc1[C@H](Cn1c(=O)n(C(C)C(=O)O)c(=O)c2c(C)c(-n3cccn3)sc21)OCC(C)(C)O (stereo partly drawn) ?
> 4.1 µg/mL

----------
List of pIC50 tested on human (hACC2) ACC2 (Homo sapiens, UniProt O00763).
Sequence (O00763 whole entry): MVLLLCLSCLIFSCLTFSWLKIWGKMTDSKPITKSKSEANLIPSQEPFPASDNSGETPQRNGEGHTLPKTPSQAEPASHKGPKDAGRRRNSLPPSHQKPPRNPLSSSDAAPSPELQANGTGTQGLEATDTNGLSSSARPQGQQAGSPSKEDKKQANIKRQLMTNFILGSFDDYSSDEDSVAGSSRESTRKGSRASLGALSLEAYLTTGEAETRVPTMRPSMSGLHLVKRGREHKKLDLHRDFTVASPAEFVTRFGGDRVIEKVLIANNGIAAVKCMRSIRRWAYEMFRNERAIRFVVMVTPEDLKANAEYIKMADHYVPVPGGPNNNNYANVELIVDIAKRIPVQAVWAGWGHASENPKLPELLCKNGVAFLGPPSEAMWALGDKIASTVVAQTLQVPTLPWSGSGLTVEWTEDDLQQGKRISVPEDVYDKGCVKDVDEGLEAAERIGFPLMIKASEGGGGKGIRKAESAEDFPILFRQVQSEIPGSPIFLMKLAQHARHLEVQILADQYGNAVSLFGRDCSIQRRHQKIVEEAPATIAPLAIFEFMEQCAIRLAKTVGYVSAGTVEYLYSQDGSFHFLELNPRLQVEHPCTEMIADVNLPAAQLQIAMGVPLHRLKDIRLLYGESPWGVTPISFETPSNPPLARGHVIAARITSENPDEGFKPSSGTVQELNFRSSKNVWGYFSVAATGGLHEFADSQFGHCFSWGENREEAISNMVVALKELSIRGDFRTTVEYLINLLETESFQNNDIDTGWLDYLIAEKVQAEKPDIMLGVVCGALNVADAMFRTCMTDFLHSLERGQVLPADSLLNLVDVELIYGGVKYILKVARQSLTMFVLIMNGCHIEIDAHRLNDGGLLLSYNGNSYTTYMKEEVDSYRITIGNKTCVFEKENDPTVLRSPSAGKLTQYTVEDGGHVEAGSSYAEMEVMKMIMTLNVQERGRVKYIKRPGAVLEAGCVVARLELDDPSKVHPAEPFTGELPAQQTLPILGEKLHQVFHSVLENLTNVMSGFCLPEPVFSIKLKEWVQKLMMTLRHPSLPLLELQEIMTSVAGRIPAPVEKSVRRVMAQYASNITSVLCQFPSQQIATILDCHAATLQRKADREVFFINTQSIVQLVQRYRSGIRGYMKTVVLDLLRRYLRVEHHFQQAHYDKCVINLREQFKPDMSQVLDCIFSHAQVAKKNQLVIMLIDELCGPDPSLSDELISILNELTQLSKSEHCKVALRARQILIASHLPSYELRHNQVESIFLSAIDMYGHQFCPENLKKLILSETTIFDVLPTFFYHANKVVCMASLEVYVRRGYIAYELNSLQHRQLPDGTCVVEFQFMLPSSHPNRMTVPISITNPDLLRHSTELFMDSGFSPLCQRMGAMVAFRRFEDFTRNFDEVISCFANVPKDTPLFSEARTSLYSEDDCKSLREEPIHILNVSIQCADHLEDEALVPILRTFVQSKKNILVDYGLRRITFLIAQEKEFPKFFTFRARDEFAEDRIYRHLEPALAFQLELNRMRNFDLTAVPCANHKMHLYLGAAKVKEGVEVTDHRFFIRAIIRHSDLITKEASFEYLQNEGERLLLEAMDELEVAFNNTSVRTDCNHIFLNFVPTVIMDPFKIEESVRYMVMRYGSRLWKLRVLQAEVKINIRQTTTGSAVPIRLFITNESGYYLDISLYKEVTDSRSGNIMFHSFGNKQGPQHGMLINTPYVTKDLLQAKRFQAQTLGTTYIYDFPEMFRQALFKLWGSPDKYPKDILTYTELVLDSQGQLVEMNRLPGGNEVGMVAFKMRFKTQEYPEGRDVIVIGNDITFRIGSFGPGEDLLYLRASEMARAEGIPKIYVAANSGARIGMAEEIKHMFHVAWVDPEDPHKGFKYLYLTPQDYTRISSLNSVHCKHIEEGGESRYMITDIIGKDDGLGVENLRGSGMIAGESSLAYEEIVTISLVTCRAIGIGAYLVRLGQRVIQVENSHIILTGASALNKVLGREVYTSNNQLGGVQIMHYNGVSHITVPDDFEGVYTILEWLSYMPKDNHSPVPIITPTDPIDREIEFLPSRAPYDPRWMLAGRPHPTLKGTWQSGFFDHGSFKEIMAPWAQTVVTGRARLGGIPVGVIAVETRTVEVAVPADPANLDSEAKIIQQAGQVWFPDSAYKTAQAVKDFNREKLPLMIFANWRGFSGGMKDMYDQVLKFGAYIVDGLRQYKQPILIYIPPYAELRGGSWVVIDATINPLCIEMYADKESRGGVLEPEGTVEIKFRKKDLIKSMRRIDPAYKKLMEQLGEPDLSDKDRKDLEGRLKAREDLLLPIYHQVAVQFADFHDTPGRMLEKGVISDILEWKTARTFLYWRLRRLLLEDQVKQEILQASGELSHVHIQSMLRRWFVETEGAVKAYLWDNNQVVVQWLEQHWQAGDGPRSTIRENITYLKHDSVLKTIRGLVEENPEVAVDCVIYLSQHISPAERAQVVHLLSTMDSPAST
pIC50: −log10 of the molar value.

Below, 2 compounds whose answers are already recorded.
COc1ccc(F)cc1[C@@H](O)Cn1c(=O)n(C(C)(C)C(=O)NC(C)C)c(=O)c2c(C)c(-n3cccn3)sc21 [Compound I-86] : 8.00 to 8.52
COCCCO[C@@H](Cn1c(=O)n(C(C)C(=O)N2CCCC2)c(=O)c2c(C)c(-n3cccn3)sc21)c1cc(F)ccc1OC (stereo partly shown) [Compound I-70] : 7.40 to 8.00

Record request: pIC50 value, item COc1ccc(F)cc1[C@H](Cn1c(=O)n(C(C)(C)C(=O)N2CCCCC2)c(=O)c2c(C)c(-n3cccn3)sc21)OC(C)C [Compound I-2]
7.40 to 8.00

Would you kindly repeat that for COCCO[C@@H](Cn1c(=O)n(C(C)C(=O)O)c(=O)c2c(C)c(-n3cccn3)sc21)c1cc(F)ccc1OC (stereo partly shown) [Compound I-57] ?
7.40 to 8.00

Moving on to the next compound: COCCOc1ccc(F)cc1[C@H](Cn1c(=O)n(C(C)(C)C(=O)O)c(=O)c2c(C)c(-n3cccn3)sc21)OC(C)C [Compound I-64]
8.00 to 8.52

----------
biological target: human (hACC2) ACC2 (Homo sapiens)
pIC50: −log10 of the molar value.
measured-quantity: pIC50

Here are 2 compounds together with their reported answers.
COc1ccc(F)cc1[C@H](Cn1c(=O)n(C(C)(C)C(N)=O)c(=O)c2c(C)c(-n3cccn3)sc21)OCCC#N : < 7.40
COc1ccc(F)cc1[C@H](Cn1c(=O)n(C(C)(C)C(=O)N2CCCC2)c(=O)c2c(C)c(-n3cccn3)sc21)OC(C)C : 8.00 to 8.52

Reported pIC50 for "COc1ccccc1[C@H](Cn1c(=O)n(C(C)(C)C(=O)NC(C)C)c(=O)c2c(C)c(-n3cccn3)sc21)OCCC#N" : what is it?
7.40 to 8.00

----------
Consider the following compounds and their measured IC90 readings.
system: Fusarium moniliforme (Fm); assay: Growth inhibition assay of fungal pathogens; type: cell-based; conditions: Fusarium verticillioides, 48 h, Table 4a, 48 hours; read-out: Concentration at 90% Inhibition Fm

Past entries and their recorded results:
COc1ccc(F)cc1[C@H](Cn1c(=O)n(C(C)(C)C(=O)NC(C)C)c(=O)c2c(C)c(-n3cccn3)sc21)O[C@H]1CC[C@@H](O)CC1 : 0.08 µg/mL
COc1ccc(F)cc1[C@H](Cn1c(=O)n(C(C)C(=O)N2CCCC2)c(=O)c2c(C)c(-n3cccn3)sc21)OC(C)C (stereo partly drawn) : 0.08 µg/mL

Given the compound "COc1ccc(F)cc1[C@H](Cn1c(=O)n(C(C)(C)C(=O)NC(C)C)c(=O)c2c(C)c(-n3cccn3)sc21)OCCO" , what is its reported IC90?
0.4 µg/mL

----------
Tested on: Fusarium virguliforme (Fv)
Test: Growth inhibition assay of fungal pathogens
Format: cell-based
Settings: 48 h, Table 4a, 48 hours, read-out: Concentration at 90% Inhibition Fv
Experimental: Compounds of the present invention were evaluated in a growth inhibition assay to determine the ability to control the growth of fungal pathogens, such as Botrtyis cinerea (Bc), Collectotrichum graminicola (Cg). […] Once the compound was added, a true final concentration of compound in each well was measured by an OD600 reading, which adjusted for any compound precipitation that might have occurred in the well. Plate readings were repeated at both 24 and 48 hours. […]
measured-quantity: IC90 (µg/mL)
Numeric only. Scale: µg/mL

Reference set, count: 5
COc1ccc(F)cc1[C@H](Cn1c(=O)n(C(C)(C)C(=O)N2CCCC2)c(=O)c2c(C)c(-n3cccn3)sc21)OC(C)C : 0.4
COc1ccccc1[C@H](Cn1c(=O)n(C(C)(C)C(=O)N2CCCC2)c(=O)c2c(C)c(-n3cccn3)sc21)OC(C)C : 0.4
COc1ccc(F)cc1[C@H](Cn1c(=O)n(C(C)(C)C(=O)N2CCOCC2)c(=O)c2c(C)c(-n3cccn3)sc21)OC(C)C : 2
COc1ccc(F)cc1[C@H](Cn1c(=O)n(C(C)(C)C(=O)NC(C)C)c(=O)c2c(C)c(-n3cccn3)sc21)OC(C)C.I : 0.4
CCO[C@@H](Cn1c(=O)n(C(C)(C)C(=O)N2CCCC2)c(=O)c2c(C)c(-n3cccn3)sc21)c1cc(F)ccc1OC : 0.4

Can you look up the measured IC90 of "COc1ccc(F)cc1[C@H](Cn1c(=O)n(C(C)(C)C(=O)N2CCCC2)c(=O)c2c(C)c(-n3cccn3)sc21)OC1CCC(=O)CC1" for me?
10

Field entry: COc1ccc(F)cc1[C@H](Cn1c(=O)n(C(C)C(=O)N2CCCC2)c(=O)c2c(C)c(-n3cccn3)sc21)OC(C)C (stereo partly shown)
0.4

Moving on to the next compound: "COc1ccc(F)cc1[C@H](Cn1c(=O)n(C(C)(C)C(=O)NC(C)C)c(=O)c2c(C)c(-n3cccn3)sc21)OCCO"
2

Please do the same for "COc1ccc(F)cc1[C@H](Cn1c(=O)n([C@@H](C)C(=O)N2CCCC2)c(=O)c2c(C)c(-n3cccn3)sc21)OC(C)C" as well.
0.4

The values you see were collected from patent US10941158B2.
